- assay conditions: 288.15 K; 101.3 kPa; Liquid; Vibrating tube method
Entries and their mass density
Record the value in kg/m3, omitting the unit from your answer.

Worked cases, answers included:
   chem_smiles  recorded_number
0         CCCO           807.86
1       ClCCCl          1260.35
2     C1COCCO1          1039.12

Consider the record given below.
[Q] Need mass density, item CC(C)O
[A] 789.68

----------
- assay conditions: 318.15 K; 101.3 kPa; Liquid; Vibrating tube method
experimental endpoint: mass density (kg/m3)
Record the value in kg/m3, omitting the unit from your answer.

Worked cases, answers included:
>>> df
   chem_smiles  experimental_endpoint  recorded_number
0       CC(C)O           mass density           763.88
1     C1COCCO1           mass density          1005.29
2         CCCO           mass density           783.64

Consider the record given below.
[Q] Need mass density, item ClCCCl
[A] 1216.56

----------
- assay conditions: 308.15 K; 101.3 kPa; Liquid; Vibrating tube method
experimental endpoint: mass density (kg/m3)
Record the value in kg/m3, omitting the unit from your answer.

Worked cases, answers included:
>>> print(df.to_string())
                      compound  experimental_endpoint  recorded_number
0           CCCO [propan-1-ol]           mass density           791.71
1       C1COCCO1 [1,4-dioxane]           mass density          1016.57
2  ClCCCl [1,2-dichloroethane]           mass density          1231.16

[Q] Need mass density, item CC(C)O [propan-2-ol]
[A] 772.48

Just for reference, the NIST ThermoML archive (doi:10.1021/acs.jced.8b00067) is where these values come from.
